# inhibition values compiled below
# Target Or Test System: Bromodomain-containing protein 9 (Homo sapiens) (UniProt Q9H8M2)
# Sequence (Q9H8M2 whole entry): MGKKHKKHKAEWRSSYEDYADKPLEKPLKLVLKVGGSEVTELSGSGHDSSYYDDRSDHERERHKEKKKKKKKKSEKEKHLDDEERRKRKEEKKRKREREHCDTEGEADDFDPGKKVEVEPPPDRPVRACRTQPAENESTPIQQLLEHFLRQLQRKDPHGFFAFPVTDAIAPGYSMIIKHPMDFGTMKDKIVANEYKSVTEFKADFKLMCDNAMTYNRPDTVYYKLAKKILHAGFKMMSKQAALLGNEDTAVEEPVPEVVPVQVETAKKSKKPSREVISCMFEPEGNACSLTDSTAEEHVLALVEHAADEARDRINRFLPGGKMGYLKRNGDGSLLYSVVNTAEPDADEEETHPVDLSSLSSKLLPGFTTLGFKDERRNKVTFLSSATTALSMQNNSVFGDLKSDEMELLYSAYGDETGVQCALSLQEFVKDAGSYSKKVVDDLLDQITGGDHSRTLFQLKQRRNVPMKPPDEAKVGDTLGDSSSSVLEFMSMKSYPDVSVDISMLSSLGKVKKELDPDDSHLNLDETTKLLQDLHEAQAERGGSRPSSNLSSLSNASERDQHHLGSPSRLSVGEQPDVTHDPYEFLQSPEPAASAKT
# Experimental Details: Inhibition of BRD9 (unknown origin) at 1 uM using H4 peptide as substrate preincubated for 15 mins followed by substrate addition and measured after 60 mins by Alphascreen assay relative to control
// note: answer is a bare numeric in %

# Given Smiles, Target Or Test System, inhibition / %
rows = [
    ("CCn1cc(-c2ccc(C(=O)N3CCNCC3)c(Cl)c2)n2cncc2c1=O", "Bromodomain-containing protein 9 (Homo sapiens) (UniProt Q9H8M2)", 83),
    ("Cn1cc(-c2cccc(C(F)(F)F)c2)n2cncc2c1=O", "Bromodomain-containing protein 9 (Homo sapiens) (UniProt Q9H8M2)", 6),
    ("Cn1cc(-c2ccc(C(=O)N3CCOCC3)cc2)n2cncc2c1=O", "Bromodomain-containing protein 9 (Homo sapiens) (UniProt Q9H8M2)", 18),
    ("C/C=C/Cn1cc(-c2ccc(C(=O)N3CCOCC3)c(F)c2)n2cncc2c1=O", "Bromodomain-containing protein 9 (Homo sapiens) (UniProt Q9H8M2)", 38),
    ("Cn1cc(-c2ccccc2)n2cncc2c1=O", "Bromodomain-containing protein 9 (Homo sapiens) (UniProt Q9H8M2)", 7),
]

Any idea what its inhibition is? The compound is C/C=C/Cn1cc(-c2ccc(C(=O)N3CCOCC3)c(Cl)c2)n2cncc2c1=O
91
